# Target: 5-HT2C receptor (Homo sapiens)
# Sequence (P28335 33-458): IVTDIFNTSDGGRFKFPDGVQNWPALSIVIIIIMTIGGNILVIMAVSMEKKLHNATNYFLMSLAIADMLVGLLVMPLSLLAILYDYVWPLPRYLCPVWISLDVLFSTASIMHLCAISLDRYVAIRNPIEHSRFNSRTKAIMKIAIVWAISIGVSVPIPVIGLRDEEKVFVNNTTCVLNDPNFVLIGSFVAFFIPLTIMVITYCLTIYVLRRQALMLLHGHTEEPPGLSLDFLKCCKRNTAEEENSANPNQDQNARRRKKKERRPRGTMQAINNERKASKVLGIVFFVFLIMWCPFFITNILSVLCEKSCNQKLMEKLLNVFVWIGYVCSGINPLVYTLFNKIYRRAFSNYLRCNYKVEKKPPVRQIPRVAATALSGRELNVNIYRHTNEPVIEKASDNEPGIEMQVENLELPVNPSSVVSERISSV
# Test method notes: cell-based
# Cond: read-out: 5-HT2C % Act @ Max Dose
Value type: Emax

Compound	Value type	Observed
CC[C@@H](C)NC(=O)[C@H]1C=C2c3cccc4[nH]cc(c34)C[C@H]2N(C)C1	Emax	93.7%
CC[C@@H](C)NC(=O)[C@@H]1C=C2c3cccc4[nH]cc(c34)C[C@H]2N(C)C1	Emax	98.2%
CCC(CC)NC(=O)[C@H]1C=C2c3cccc4[nH]cc(c34)C[C@H]2N(C)C1 [Int14a]	Emax	119%
CCC[C@@H](C)NC(=O)[C@@H]1C=C2c3cccc4[nH]cc(c34)C[C@H]2N(C)C1	Emax	102%
CCC(CC)NC(=O)[C@@H]1C=C2c3cccc4[nH]cc(c34)C[C@H]2N(C)C1	Emax	99.1%
CCC[C@@H](C)NC(=O)[C@H]1C=C2c3cccc4[nH]cc(c34)C[C@H]2N(C)C1 [Int17a]	Emax	112%
